Numbers sourced from ChEMBL document CHEMBL1938343.

Below, each entry is listed alongside its reported half-life.
- ASSAY_INFO: Half life in dog at 1 mg/kg, iv and 1 mg/kg, po
- Type: ADME, organism-based, Canis lupus familiaris
- EXPERIMENTAL_SETUP: in vivo

MOLECULE	half-life
O=C(NC1CCCS(=O)(=O)C1)c1ccc(Oc2ccc(C#C[C@]3(O)CN4CCC3CC4)cc2)cc1 (single isomer, unassigned; diastereomer 1)	5 h

Then there is this molecule:
Exercise: // lookup half-life for `CN1CCC(NC(=O)c2ccc(Oc3ccc(C#C[C@]4(O)CN5CCC4CC5)cc3)cc2)CC1`
Solution: 23 h

* * *

- TARGET_OR_SYSTEM: UniProt P08254
- Sequence (P08254 whole entry): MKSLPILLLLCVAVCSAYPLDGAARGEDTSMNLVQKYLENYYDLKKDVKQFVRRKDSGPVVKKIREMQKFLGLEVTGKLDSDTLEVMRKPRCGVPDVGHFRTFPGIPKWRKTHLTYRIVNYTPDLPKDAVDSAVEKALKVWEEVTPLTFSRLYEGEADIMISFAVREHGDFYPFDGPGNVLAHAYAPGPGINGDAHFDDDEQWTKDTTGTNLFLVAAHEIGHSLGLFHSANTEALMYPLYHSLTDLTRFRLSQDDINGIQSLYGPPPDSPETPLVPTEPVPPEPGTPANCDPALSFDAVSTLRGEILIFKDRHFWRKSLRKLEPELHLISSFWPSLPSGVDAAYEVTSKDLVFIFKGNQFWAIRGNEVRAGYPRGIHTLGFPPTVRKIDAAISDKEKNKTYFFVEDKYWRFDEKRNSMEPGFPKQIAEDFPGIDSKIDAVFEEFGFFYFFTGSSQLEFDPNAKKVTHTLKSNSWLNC
REPORTED_PROPERTY: IC50

Exercise: Form field - read-out: IC50; system: UniProt P08254; submitted item: O=C(NC1CCCS(=O)(=O)C1)c1ccc(Oc2ccc(C#C[C@]3(O)CN4CCC3CC4)cc2)cc1 (single isomer, unassigned; diastereomer 1)
Solution: > 10 µM

* * *

- TARGET_OR_SYSTEM: Collagenase 3 (Homo sapiens, UniProt P45452)
- ASSAY_INFO: Inhibition of recombinant human MMP13 using Mca-Pro-cyclohexyl-Ala-Gly-Nva-His-Ala- Dap(Dnp)-NH2 as substrate by fluorometric analysis
- EXPERIMENTAL_SETUP: read-out: pIC50 (converted)
Lab note: class by IC50, see low value = under 50 nM, medium value = from 50 nM up to 100 nM, high value = 100 nM and over

Example entries and their recorded answers appear below.
MOLECULE	CLASS
CS(=O)(=O)Oc1cccc(CNC(=O)c2ccc(Oc3ccc(C#C[C@]4(O)CN5CCC4CC5)cc3)cc2)c1	medium value
O=C(NC1CCS(=O)(=O)C1)c1ccc(Oc2ccc(C#C[C@]3(O)CN4CCC3CC4)cc2)cc1 (stereo partly specified)	medium value

Exercise: For the record `CN(C)C(=O)c1ccc(Oc2ccc(C#C[C@]3(O)CN4CCC3CC4)cc2)cc1` , report the class its IC50 corresponds to.
Solution: high value

Exercise: The entry to classify is `CONC(=O)c1ccc(Oc2ccc(C#C[C@]3(O)CN4CCC3CC4)cc2)cc1` ; which class holds it?
Solution: high value

* * *

Listed here are compounds together with their documented fraction unbound.
- ASSAY_INFO: Fraction unbound in rat
- Type: ADME, organism-based
- EXPERIMENTAL_SETUP: in vivo
Just the number, please.

Recorded results for 2 compounds are shown here.
COMPOUND	REPORTED_PROPERTY	VALUE_MEASURED
CN1CCC(NC(=O)c2ccc(Oc3ccc(C#C[C@]4(O)CN5CCC4CC5)cc3)cc2)CC1	fraction unbound	0.73
CNC(=O)c1ccc(Oc2ccc(C#C[C@]3(O)CN4CCC3CC4)cc2)cc1	fraction unbound	0.26

Exercise: Fill in: fraction unbound of O=C(NC1CCCS(=O)(=O)C1)c1ccc(Oc2ccc(C#C[C@]3(O)CN4CCC3CC4)cc2)cc1 (single isomer, unassigned; diastereomer 1) is ___
Solution: 0.27

* * *

- TARGET_OR_SYSTEM: 72 kDa type IV collagenase (Homo sapiens, UniProt P08253)
- Sequence (P08253 whole entry): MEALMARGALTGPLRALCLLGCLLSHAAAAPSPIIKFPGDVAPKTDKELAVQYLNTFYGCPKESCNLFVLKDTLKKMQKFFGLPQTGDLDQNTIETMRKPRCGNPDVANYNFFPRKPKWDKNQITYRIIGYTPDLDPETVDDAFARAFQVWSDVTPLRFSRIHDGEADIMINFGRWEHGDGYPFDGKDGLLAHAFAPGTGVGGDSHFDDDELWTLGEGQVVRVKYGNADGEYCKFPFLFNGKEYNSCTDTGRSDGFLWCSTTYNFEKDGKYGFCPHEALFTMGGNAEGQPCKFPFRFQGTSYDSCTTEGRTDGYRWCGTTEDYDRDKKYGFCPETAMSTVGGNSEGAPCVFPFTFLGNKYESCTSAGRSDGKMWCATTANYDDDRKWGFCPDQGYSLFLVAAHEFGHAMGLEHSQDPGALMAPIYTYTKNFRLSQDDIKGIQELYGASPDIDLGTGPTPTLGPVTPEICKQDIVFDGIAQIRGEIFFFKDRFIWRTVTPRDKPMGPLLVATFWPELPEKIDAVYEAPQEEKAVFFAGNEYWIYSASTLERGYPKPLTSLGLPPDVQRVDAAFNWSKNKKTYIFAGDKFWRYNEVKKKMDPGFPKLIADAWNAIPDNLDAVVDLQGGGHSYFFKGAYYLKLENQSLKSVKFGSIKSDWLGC
- ASSAY_INFO: Inhibition of MMP2 using Mca-Pro-cyclohexyl-Ala-Gly-Nva-His-Ala- Dap(Dnp)-NH2 as substrate by fluorometric analysis
- EXPERIMENTAL_SETUP: read-out: IC50
Recorded IC50 by entry
Write the value in µM as a bare number.

COMPOUND	REPORTED_PROPERTY	VALUE_MEASURED
CN1CCC(NC(=O)c2ccc(Oc3ccc(C#C[C@]4(O)CN5CCC4CC5)cc3)cc2)CC1	IC50	7.3

Attention now shifts to the item below.
Exercise: For O=C(NC1CCCS(=O)(=O)C1)c1ccc(Oc2ccc(C#C[C@]3(O)CN4CCC3CC4)cc2)cc1 (single isomer, unassigned; diastereomer 1) , what is its reported IC50?
Solution: 5.1

* * *

- ASSAY_INFO: Oral bioavailability in rat
- Type: ADME, organism-based
- EXPERIMENTAL_SETUP: in vivo
REPORTED_PROPERTY: bioavailability (%)
Please reply with the bare figure in % and do not write the unit itself.

Exercise: Give its bioavailability value. Item: `CNC(=O)c1ccc(Oc2ccc(C#C[C@]3(O)CN4CCC3CC4)cc2)cc1`
Solution: 54

Exercise: Could you share which bioavailability value was measured for `CN1CCC(NC(=O)c2ccc(Oc3ccc(C#C[C@]4(O)CN5CCC4CC5)cc3)cc2)CC1` ?
Solution: 2

Exercise: Bench note: what bioavailability did `Cc1cc(CN(C)C(=O)c2ccc(Oc3ccc(C#C[C@]4(O)CN5CCC4CC5)cc3)cc2)on1` show?
Solution: 3

* * *

- ASSAY_INFO: Intrinsic clearance in human microsomes
- Format: ADME, Microsome
REPORTED_PROPERTY: microsomal CLint (µL/min/mg)
Response body: numeric value in µL/min/mg, unit text excluded.

Some entries whose results are on file:
CPD_SMILES	microsomal CLint (µL/min/mg)
CS(=O)(=O)N1CCC(NC(=O)c2ccc(Oc3ccc(C#C[C@]4(O)CN5CCC4CC5)cc3)cc2)CC1	2.9
COc1ccc(CNC(=O)c2ccc(Oc3ccc(C#C[C@]4(O)CN5CCC4CC5)cc3)cc2)cc1OC	2.7
COc1ccc(CNC(=O)c2ccc(Oc3ccc(C#C[C@]4(O)CN5CCC4CC5)cc3)cc2)nc1	5.6
O=C(NCc1ccncc1)c1ccc(Oc2ccc(C#C[C@]3(O)CN4CCC3CC4)cc2)cc1	10.2
CN1CCC(NC(=O)c2ccc(Oc3ccc(C#C[C@]4(O)CN5CCC4CC5)cc3)cc2)CC1	2.6

Exercise: Which measured microsomal CLint value corresponds to `O=C(NC1CCCCC1)c1ccc(Oc2ccc(C#C[C@]3(O)CN4CCC3CC4)cc2)cc1` ?
Solution: 2.9

Exercise: Fill in the blank: the reported microsomal CLint of `COc1cccc(CNC(=O)c2ccc(Oc3ccc(C#C[C@]4(O)CN5CCC4CC5)cc3)cc2)c1` is ____.
Solution: 10.9

* * *

Entries annotated with measured hepatocyte CLint
- ASSAY_INFO: Intrinsic clearance in human hepatocytes assessed per 10^6 cells
- Format: ADME, cell-based, Hepatocyte
- EXPERIMENTAL_SETUP: read-out: CLH

MOLECULE	VALUE_MEASURED
CN1CCC(NC(=O)c2ccc(Oc3ccc(C#C[C@]4(O)CN5CCC4CC5)cc3)cc2)CC1	< 2 µL/min/1e6 cells

Now consider a different molecule.
Exercise: Bench note: what hepatocyte CLint did O=C(NC1CCCS(=O)(=O)C1)c1ccc(Oc2ccc(C#C[C@]3(O)CN4CCC3CC4)cc2)cc1 (single isomer, unassigned; diastereomer 1) show?
Solution: < 2 µL/min/1e6 cells

* * *

Measured pIC50 accompanies every entry in the list below.
- TARGET_OR_SYSTEM: Matrix metalloproteinase-9 (Homo sapiens, UniProt P14780)
- Sequence (P14780 whole entry): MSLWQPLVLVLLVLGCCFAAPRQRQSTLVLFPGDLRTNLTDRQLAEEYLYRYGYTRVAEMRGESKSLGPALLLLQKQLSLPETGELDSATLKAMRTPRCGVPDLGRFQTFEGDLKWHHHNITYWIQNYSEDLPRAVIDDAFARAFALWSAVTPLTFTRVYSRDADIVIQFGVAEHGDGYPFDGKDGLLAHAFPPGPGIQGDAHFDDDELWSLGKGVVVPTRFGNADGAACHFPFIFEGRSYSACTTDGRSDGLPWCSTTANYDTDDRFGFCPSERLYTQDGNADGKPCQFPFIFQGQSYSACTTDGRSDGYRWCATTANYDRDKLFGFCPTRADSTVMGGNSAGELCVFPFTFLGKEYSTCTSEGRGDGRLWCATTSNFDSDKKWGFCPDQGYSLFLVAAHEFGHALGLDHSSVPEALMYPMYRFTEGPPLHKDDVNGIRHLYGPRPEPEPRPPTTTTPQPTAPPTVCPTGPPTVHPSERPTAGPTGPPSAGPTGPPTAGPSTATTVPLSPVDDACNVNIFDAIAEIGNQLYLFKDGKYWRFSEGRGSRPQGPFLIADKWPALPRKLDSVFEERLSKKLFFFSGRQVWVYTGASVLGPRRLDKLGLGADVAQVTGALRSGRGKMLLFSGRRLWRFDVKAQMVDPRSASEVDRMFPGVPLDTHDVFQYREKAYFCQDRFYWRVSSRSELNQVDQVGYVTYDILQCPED
- ASSAY_INFO: Inhibition of MMP9 using Mca-Pro-cyclohexyl-Ala-Gly-Nva-His-Ala- Dap(Dnp)-NH2 as substrate by fluorometric analysis
- EXPERIMENTAL_SETUP: read-out: IC50
pIC50: −log10 of the molar value.

COMPOUND	VALUE_MEASURED
CN1CCC(NC(=O)c2ccc(Oc3ccc(C#C[C@]4(O)CN5CCC4CC5)cc3)cc2)CC1	< 5.00

Proceeding to the next compound to report its pIC50.
Exercise: // returns reported pIC50 for input O=C(NC1CCCS(=O)(=O)C1)c1ccc(Oc2ccc(C#C[C@]3(O)CN4CCC3CC4)cc2)cc1 (single isomer, unassigned; diastereomer 1)
Solution: < 5.00

* * *

- TARGET_OR_SYSTEM: Cytochrome P450 2D6 (Homo sapiens, UniProt P10635)
- Sequence (P10635 whole entry): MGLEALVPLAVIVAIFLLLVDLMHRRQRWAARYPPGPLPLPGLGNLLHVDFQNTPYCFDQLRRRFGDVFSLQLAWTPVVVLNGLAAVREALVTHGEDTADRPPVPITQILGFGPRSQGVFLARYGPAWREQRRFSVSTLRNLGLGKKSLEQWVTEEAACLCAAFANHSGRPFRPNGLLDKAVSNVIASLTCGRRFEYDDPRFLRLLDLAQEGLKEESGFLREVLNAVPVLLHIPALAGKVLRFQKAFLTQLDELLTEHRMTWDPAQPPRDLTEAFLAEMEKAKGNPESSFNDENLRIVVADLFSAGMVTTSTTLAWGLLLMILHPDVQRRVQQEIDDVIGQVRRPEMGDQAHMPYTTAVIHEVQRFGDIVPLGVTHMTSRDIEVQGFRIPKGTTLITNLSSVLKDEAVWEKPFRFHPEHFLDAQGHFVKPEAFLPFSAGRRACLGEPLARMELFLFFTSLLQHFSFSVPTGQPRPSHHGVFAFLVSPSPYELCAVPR
- ASSAY_INFO: Inhibition of CYP2D6
- Type: ADME
- EXPERIMENTAL_SETUP: read-out: IC50
REPORTED_PROPERTY: IC50

Exercise: Form field: reported IC50 of O=C(NC1CCCS(=O)(=O)C1)c1ccc(Oc2ccc(C#C[C@]3(O)CN4CCC3CC4)cc2)cc1 (single isomer, unassigned; diastereomer 1)
Solution: > 10 µM

* * *

- ASSAY_INFO: Intrinsic clearance in human microsomes
- Type: ADME, Microsome
REPORTED_PROPERTY: microsomal CLint (µL/min/mg)
# number only, unit µL/min/mg dropped from output

Consider the following illustrative entries.
CPD_SMILES	microsomal CLint, µL/min/mg
O=C(NCc1ccnc2ccccc12)c1ccc(Oc2ccc(C#C[C@]3(O)CN4CCC3CC4)cc2)cc1	26.1
COc1ccc(CNC(=O)c2ccc(Oc3ccc(C#C[C@]4(O)CN5CCC4CC5)cc3)cc2)c(OC)c1	16.1
O=C(NC1CCS(=O)(=O)CC1)c1ccc(Oc2ccc(C#C[C@]3(O)CN4CCC3CC4)cc2)cc1	2.5
COc1cc(CNC(=O)c2ccc(Oc3ccc(C#C[C@]4(O)CN5CCC4CC5)cc3)cc2)cc(OC)c1	4.8
C[C@@H](NC(=O)c1ccc(Oc2ccc(C#C[C@]3(O)CN4CCC3CC4)cc2)cc1)c1ccncc1	18.8
O=C(NC1CCN(C2CC2)CC1)c1ccc(Oc2ccc(C#C[C@]3(O)CN4CCC3CC4)cc2)cc1	4.7
O=C(NC1CCN(C(=O)C2CC2)CC1)c1ccc(Oc2ccc(C#C[C@]3(O)CN4CCC3CC4)cc2)cc1	3.7
CC[C@@H](C)NC(=O)c1ccc(Oc2ccc(C#C[C@]3(O)CN4CCC3CC4)cc2)cc1	8.9
CS(=O)(=O)Oc1cccc(CNC(=O)c2ccc(Oc3ccc(C#C[C@]4(O)CN5CCC4CC5)cc3)cc2)c1	8.6
Cc1cc(CN(C)C(=O)c2ccc(Oc3ccc(C#C[C@]4(O)CN5CCC4CC5)cc3)cc2)on1	2.7

Exercise: Please report the recorded microsomal CLint for `CS(=O)(=O)c1cccc(CNC(=O)c2ccc(Oc3ccc(C#C[C@]4(O)CN5CCC4CC5)cc3)cc2)c1` .
Solution: 12.5

Exercise: Entry `N#Cc1cccc(CNC(=O)c2ccc(Oc3ccc(C#C[C@]4(O)CN5CCC4CC5)cc3)cc2)c1` has what microsomal CLint?
Solution: 9.9

Exercise: Which microsomal CLint is reported for this compound? `CNC(=O)c1ccc(Oc2ccc(C#C[C@]3(O)CN4CCC3CC4)cc2)cc1`
Solution: 3.9

Exercise: Consider the compound `CC(=O)N1CCC(NC(=O)c2ccc(Oc3ccc(C#C[C@]4(O)CN5CCC4CC5)cc3)cc2)CC1` and give its measured microsomal CLint.
Solution: 2.5
